Test system: Mus musculus
experimental details: In vivo LPS-induced TNF-alpha production in mice after ip administration (30 min pretreatment)
Format: functional
ED50 values by entry
Quick note: give the figure in mg/kg, leave out the unit.

INSERT INTO results (molecule, study_system, unit_annotation, reported_value) VALUES
  ('N#Cc1c(-c2cccc(NC(=O)C(O)CCC(=O)[O-])c2)cc(-c2ccccc2O)nc1N.[Na+] (stereo not given)', 'Mus musculus', 'mg/kg', 1.3),
  ('CN(C)c1ccc(-c2cc(-c3ccccc3O)nc(N)c2C#N)cc1NC(=O)CCN1CCCCC1.Cl', 'Mus musculus', 'mg/kg', 0.6),
  ('Cl.N#Cc1c(-c2ccc(N3CCCC3)c(NC(=O)CCN3CCCCC3)c2)cc(-c2ccccc2O)nc1N', 'Mus musculus', 'mg/kg', 0.8);

Now consider a different molecule.
Ask | Quick check: ED50 of N#Cc1c(-c2cccc(NC(=O)C3CCC(=O)O3)c2)cc(-c2ccccc2O)nc1N (stereo not given) ?
Reply | 10

* * *

System: A549
experimental details: In vitro concentration required to inhibit the TNF-alpha-induced RANTES production in A549 human lung epithelium cell line
Assay type: functional, cell-based
measured endpoint: IC50 (µM)
Quick note: give the figure in µM, leave out the unit.

INSERT INTO assay_data (query_smiles, measured_endpoint, reported_value) VALUES
  ('N#Cc1c(-c2cccc(NC(=O)CN3CCCCC3)c2)cc(-c2ccccc2O)nc1N', 'IC50', 15);

Ask | Quick check: IC50 of N#Cc1c(-c2cccc(C(=O)NCCN3CCCCC3)c2)cc(-c2ccccc2O)nc1N ?
Reply | 15

* * *

Tested on: PBMC
experimental details: In vitro inhibition TNF-alpha release in human Peripheral blood mononuclear cells (PBMC)
Type: functional, cell-based
measured endpoint: IC50 (µM)
Quick note: give the figure in µM, leave out the unit.

Ask | Quick check: IC50 of N#Cc1c(-c2cccc(NC(=O)C3CCC(=O)O3)c2)cc(-c2ccccc2O)nc1N (stereo unspecified) ?
Reply | 10

* * *

study system: UniProt:P43405
measured endpoint: IC50

Ask | Quick check: IC50 of N#Cc1c(-c2cccc(NC(=O)CCN3CCCCC3)c2)cc(-c2ccccc2O)nc1N ?
Reply | > 20 µM

* * *

study system: Inhibitor of nuclear factor kappa-B kinase subunit beta (Homo sapiens)
Sequence (O14920 whole entry): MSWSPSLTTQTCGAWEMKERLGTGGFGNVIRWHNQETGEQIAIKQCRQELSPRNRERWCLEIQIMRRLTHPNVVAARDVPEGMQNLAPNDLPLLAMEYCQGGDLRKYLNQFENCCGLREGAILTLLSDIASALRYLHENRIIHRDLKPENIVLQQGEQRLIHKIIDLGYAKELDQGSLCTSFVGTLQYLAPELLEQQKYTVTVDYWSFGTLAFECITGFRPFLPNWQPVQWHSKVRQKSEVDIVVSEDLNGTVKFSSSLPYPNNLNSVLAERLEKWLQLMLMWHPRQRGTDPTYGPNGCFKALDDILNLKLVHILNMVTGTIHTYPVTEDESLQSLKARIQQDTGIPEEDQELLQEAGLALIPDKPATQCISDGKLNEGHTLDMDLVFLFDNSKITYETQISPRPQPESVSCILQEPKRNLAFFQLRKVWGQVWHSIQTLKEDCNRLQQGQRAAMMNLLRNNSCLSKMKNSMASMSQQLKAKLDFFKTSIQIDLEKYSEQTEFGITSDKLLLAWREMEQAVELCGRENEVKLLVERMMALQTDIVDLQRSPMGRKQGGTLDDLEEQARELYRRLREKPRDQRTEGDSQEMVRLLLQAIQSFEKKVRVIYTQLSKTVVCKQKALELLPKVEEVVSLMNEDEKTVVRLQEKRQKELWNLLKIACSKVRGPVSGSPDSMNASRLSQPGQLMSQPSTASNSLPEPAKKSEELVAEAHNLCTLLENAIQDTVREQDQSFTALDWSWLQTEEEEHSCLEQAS
experimental details: In vitro inhibitory concentration required against recombinant human IkB kinase beta (IKK-beta)
measured endpoint: IC50 (µM)
Quick note: give the figure in µM, leave out the unit.

Some solved entries appear below for comparison.
INSERT INTO assay_data (molecule, measured_endpoint, unit_annotation, reported_value) VALUES
  ('CC(=O)Nc1nc(-c2ccccc2O)cc(-c2cccc(NC(=O)CCN3CCCCC3)c2)c1C#N', 'IC50', 'µM', 15),
  ('N#Cc1c(-c2cccc(NC(=O)CC(N)C(=O)O)c2)cc(-c2ccccc2O)nc1N (stereo not given)', 'IC50', 'µM', 0.6),
  ('N#Cc1c(-c2ccc(N3CCCCC3)c(NC(=O)CCN3CCCCC3)c2)cc(-c2ccccc2O)nc1N', 'IC50', 'µM', 2.5);

Ask | Quick check: IC50 of N#Cc1c(-c2cccc(N)c2)cc(-c2ccccc2O)nc1N ?
Reply | 20

Ask | Now consider N#Cc1c(-c2cccc(NC(=O)CN3CCCCC3)c2)cc(-c2ccccc2O)nc1N and answer again.
Reply | 3

Ask | Now consider N#Cc1c(-c2cccc(NC(=O)CCCC(=O)O)c2)cc(-c2ccccc2O)nc1N and answer again.
Reply | 1.4
